Data origin: paper PMC11249646

assayedTarget: GST-CIB1 : F-scrambled peptide (Homo sapiens, UniProt Q99828)
Construct: made in house; host or cells: BL-21 plus RIL cells (E. coli)
measurementDescription: FP scrambled-peptide counter screen, 384-well format
Type: binding
conditionInfo: F-scrambled peptide

- compound: "CCOC(=O)c1nnc(NS(=O)(=O)c2ccc(NC(=O)Cc3ccc(Cl)c(Cl)c3)cc2)s1.O=C(O)C(F)(F)F"
  384-well COUNTERSCREEN Efficacy (%): 20
- compound: "CC[C@@H](CO)NC(=O)[C@@H]1C=C2c3cccc4[nH]cc(c34)C[C@H]2N(C)C1.O=C(O)/C=C\\C(=O)O"
  384-well COUNTERSCREEN Efficacy (%): 80
- compound: "CCC(=O)NC(c1cccs1)c1cc([N+](=O)[O-])c2cccnc2c1O (stereo not shown)"
  384-well COUNTERSCREEN Efficacy (%): 47
- compound: "O=C(Nc1nc(-c2ccccc2)cs1)c1ccncc1NS(=O)(=O)c1cccc2cccnc12.O=C(O)C(F)(F)F"
  384-well COUNTERSCREEN Efficacy (%): 18
- compound: "Cl.NC(CO)(CO)CCc1ccc(Sc2cccc(OCc3ccccc3)c2)cc1Cl"
  384-well COUNTERSCREEN Efficacy (%): 17
- compound: "Cl.O=C1c2c(O)ccc(O)c2C(=O)c2c(NCCNCCO)ccc(NCCNCCO)c21"
  384-well COUNTERSCREEN Efficacy (%): 75
- compound: "CSC(Cc1ccc(Cl)cc1)C(=O)Nc1ccc(Cl)cc1C(=O)O.O=C(O)C(F)(F)F (stereo not shown)"
  384-well COUNTERSCREEN Efficacy (%): 29

* * *

Efficacy (%) by entry:
assayedTarget: CIB1 and αIIb interaction (CIB1-GST : F-αIIb peptide) (Homo sapiens)
Construct: made in house; host or cells: BL-21 plus RIL cells (E. coli)
Sequence (Q99828 1-191): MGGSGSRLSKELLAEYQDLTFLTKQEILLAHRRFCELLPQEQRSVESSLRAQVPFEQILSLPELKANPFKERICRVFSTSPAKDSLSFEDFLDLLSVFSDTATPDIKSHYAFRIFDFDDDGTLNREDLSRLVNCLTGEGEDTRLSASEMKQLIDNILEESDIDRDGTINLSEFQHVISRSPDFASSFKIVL
measurementDescription: FP assay, 1536-well qHTS format (primary and confirmatory screen)
Assay type: binding
conditionInfo: qHTS primary screen hits, Table S2; negative = inhibition
measurementName: Efficacy (%)

- compound: "O=C(NC1=CC(=O)c2ccccc2C1=O)c1ccccc1.O=C(O)C(F)(F)F"
  assayedTarget: "CIB1 and αIIb interaction (CIB1-GST : F-αIIb peptide) (Homo sapiens)"
  measurementName: "Efficacy (%)"
  number: -92
- compound: "COc1ccccc1C(=O)/C=C1/C(=O)Nc2ccc(C)cc21.O=C(O)C(F)(F)F"
  assayedTarget: "CIB1 and αIIb interaction (CIB1-GST : F-αIIb peptide) (Homo sapiens)"
  measurementName: "Efficacy (%)"
  number: -43
- compound: "O=C(NC1=CC(=O)[C@H]2O[C@H]2C1=O)c1ccccc1O"
  assayedTarget: "CIB1 and αIIb interaction (CIB1-GST : F-αIIb peptide) (Homo sapiens)"
  measurementName: "Efficacy (%)"
  number: -29
- compound: "CCC(OC(=O)c1ccc(S(C)(=O)=O)c([N+](=O)[O-])c1)C(=O)NC1C2CC3CC(C2)CC1C3 (stereo not shown)"
  assayedTarget: "CIB1 and αIIb interaction (CIB1-GST : F-αIIb peptide) (Homo sapiens)"
  measurementName: "Efficacy (%)"
  number: -27
